# credit: PubChem BioAssay (NCI)

The entries below are paired with their reported growth.
Test system: OVCAR-3 ovarian
ASSAY_TEXT: NCI-60 one-dose screen, 48 h (100 = growth as untreated, 0 = no growth, -100 = all killed)
RUN_CONDITIONS: 10 µM unless noted
About 83,000 compounds went through this panel and 20% of them were active in at least one assay; those are over-represented in the sample as a whole.
QUANTITY: growth (%)

MOLECULE	MEASURED_TARGET	QUANTITY	QUANTITY_UNIT	MEASURED_RESULT
COc1ccc2[nH]cc(-c3cc(N)n4nc(-c5c[nH]c6ccccc56)cc4n3)c2c1	OVCAR-3 ovarian	growth	%	14.6
Cc1nc2sccn2c1-c1nnc(SCC(C)C)o1	OVCAR-3 ovarian	growth	%	104
Cn1cc(Nc2ncnc(-c3ccc(N4CCCC4)c(C#N)c3)n2)cn1	OVCAR-3 ovarian	growth	%	81.6
O=C1Nc2cc(-c3ccc(NS(=O)(=O)c4ccc(F)c(Cl)c4)cc3)ccc2/C1=C/c1ccc[nH]1	OVCAR-3 ovarian	growth	%	56.9
COc1ccc([C@H]2C(C(=O)c3ccc(Cl)cc3)C3(N[C@@H]2c2ccccc2)C(=O)Nc2ccccc23)cc1 (some centres undefined)	OVCAR-3 ovarian	growth	%	27.4
S=C(Nc1ccc(OCc2nc3ccc(Cl)cc3[nH]2)cc1)NC1CCCCC1	OVCAR-3 ovarian	growth	%	-3.28
Nc1nnc(-c2cncc(Br)c2)c(-c2c[nH]c3ccc(Br)cc23)n1	OVCAR-3 ovarian	growth	%	69.9
N#CC1=C(c2cccs2)Nc2c(c(-c3ccccc3)nn2-c2ccccc2)C12C(=O)Nc1ccc(Cl)cc12 (centres undefined)	OVCAR-3 ovarian	growth	%	23.1
O=C(Nc1ccc(-c2ccc3c(c2)NC(=O)/C3=C\c2ccc[nH]2)cc1)Nc1cccc(Cl)c1	OVCAR-3 ovarian	growth	%	2.44
CC(=O)c1ccc2c(N)c(C(=O)Nc3ccc(C(F)(F)F)cc3)sc2n1	OVCAR-3 ovarian	growth	%	94.4
COC(=O)c1cc(C(=O)CBr)n2c1ccc1c3ccccc3ccc12	OVCAR-3 ovarian	growth	%	103
Oc1ccc(Cl)c(Nc2ncnc3c2cnn3CC(Cl)c2ccc(Br)cc2)c1 (centres undefined)	OVCAR-3 ovarian	growth	%	32.3
CCOc1ccc(-c2cc(-c3cc(C(C)C)c(O)cc3C)nn2-c2ccc(S(N)(=O)=O)cc2)cc1	OVCAR-3 ovarian	growth	%	36.2
Cc1ccc(S(=O)(=O)Nc2ccc(-c3ccc4c(c3)NC(=O)/C4=C\c3ccc[nH]3)cc2)cc1	OVCAR-3 ovarian	growth	%	125
COc1cc(C2CC(c3ccc(S(=O)(=O)NCCNc4nc(N(C)C)nc(N5CCOCC5)n4)cc3)=Nc3c(N)nc(N)nc3N2)cc(OC)c1OC (centres undefined)	OVCAR-3 ovarian	growth	%	105
O=C(/C=C1\C(=O)N(Cc2ccccc2)c2ccccc21)c1cc2ccccc2oc1=O	OVCAR-3 ovarian	growth	%	38.6
O=c1ccc(Cn2c(C(F)(F)F)cc3c(Cl)ncnc32)c[nH]1	OVCAR-3 ovarian	growth	%	-20
C/C(=N/O)c1ccc(NC(=O)CSc2nnc(-c3ccc(-c4nc5ccc(Cl)cc5[nH]4)cc3)o2)cc1	OVCAR-3 ovarian	growth	%	-5.29
Cc1ccc2c(c1)nc(-c1ccccc1)n2CC(=O)N=Nc1c(O)[nH]c2ccc(Cl)cc12	OVCAR-3 ovarian	growth	%	-70.3
